Target: T1, human amylin receptor 3 (human, UniProt P30988 25-474; O60896 24-148)
T1 construct: whole, on cells; also called AMY3; Human AMY3
T1 sequence (looked up) 1: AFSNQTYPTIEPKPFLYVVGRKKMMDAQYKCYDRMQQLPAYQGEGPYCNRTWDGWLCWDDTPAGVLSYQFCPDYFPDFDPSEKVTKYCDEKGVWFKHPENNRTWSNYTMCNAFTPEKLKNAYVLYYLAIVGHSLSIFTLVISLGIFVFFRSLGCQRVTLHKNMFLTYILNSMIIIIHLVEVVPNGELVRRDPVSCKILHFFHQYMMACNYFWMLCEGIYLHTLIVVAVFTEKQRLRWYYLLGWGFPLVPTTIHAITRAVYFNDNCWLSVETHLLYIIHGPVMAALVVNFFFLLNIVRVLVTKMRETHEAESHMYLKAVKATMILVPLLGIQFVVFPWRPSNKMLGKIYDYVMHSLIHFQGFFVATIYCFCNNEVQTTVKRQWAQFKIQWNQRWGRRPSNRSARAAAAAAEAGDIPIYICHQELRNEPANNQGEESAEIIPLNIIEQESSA
T1 sequence (looked up) 2: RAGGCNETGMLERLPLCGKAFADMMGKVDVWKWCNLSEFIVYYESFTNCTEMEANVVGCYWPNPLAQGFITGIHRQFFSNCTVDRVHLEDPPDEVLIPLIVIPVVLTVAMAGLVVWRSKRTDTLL
Test: competition with 125I-rat amylin, human AMY3 receptor
Ends that are not written are not given here. mPEG40KD = methoxy-PEG of 40 kDa
attribute.measured: IC50 (nM)

[A] CNTATCATQRLANFLVHSSNNFGPILPPTK(mPEG40KD)VGSNTY-NH2 (ends and bridges not checked, also called Cmpd 78) [[K^31(mPEG40KD)]-Cmpd 61]
[B] CNTATCATQRLANFLVHSSNNFGPILPK(mPEG40KD)TNVGSNTY-NH2 (ends and bridges not checked, also called Cmpd 84) [[K^29(mPEG40KD)]-Cmpd 66]
[C] CNTATCATQRLANFLVK(mPEG 40 kDa)SSNNFGPILPPTNVGSNTY-NH2 (ends and bridges not checked, also called Cmpd 90) [[K^18(mPEG40KD)]-Cmpd 58]
Task: Sort the entries above by IC50, smallest first. Reply with the labels, ordered as the question asks.
Output: B, A, C
(B: 47 nM, A: 80 nM, C: 238 nM)

[a] CNTATCATQRLANFLVHSSNNFGPILPPTNVGK(mPEG40KD)NTY-NH2 (ends and bridges not checked, also called Cmpd 94) [[K^34(mPEG40KD)]-Cmpd 58]
[b] CNTATCATQRLANFLVHSSNNFGPILPPTNVK(mPEG40KD)SNTY-NH2 (ends and bridges not checked, also called Cmpd 93) [[K^33(mPEG40KD)]-Cmpd 58]
Task: Lowest IC50? choose a or b Answer by stating the label of the chosen item.
Output: a

[A] CNTATCATQRLANFLVHSSNNFGPILPPK(mPEG40KD)NVGSNTY-NH2 (ends and bridges not checked, also called Cmpd 87) [[K^30(mPEG40KD)]-Cmpd 58]
[B] CNTATCATQRLANFLVHSSNNFGPILPPTNVGSK(mPEG40KD)TY-NH2 (ends and bridges not checked, also called Cmpd 95) [[K^35(mPEG40KD)]-Cmpd 58]
[C] CNTATCATQRLANFLVHSSNNFGPILPPTNVGSNK(mPEG40KD)Y-NH2 (ends and bridges not checked, also called Cmpd 96) [[K^36(mPEG40KD)]-Cmpd 58]
[D] CNTATCATQRLANFLVHSSNNFGPK(mPEG40KD)LPPTNVGSNTY-NH2 (ends and bridges not checked, also called Cmpd 88) [[K^26(mPEG40KD)]-Cmpd 58]
[E] CNTATCATQRLANFLVHSSNNK(mPEG 40 kDa)GPILPPTNVGSNTY-NH2 (ends and bridges not checked, also called Cmpd 86) [[K^23(mPEG40KD)]-Cmpd 58]
Task: List these items ordered by IC50, big to small. Reply with the labels, ordered as the question asks.
Output: C, A, E, B, D
(C: 984 nM, A: 685 nM, E: 240 nM, B: 143 nM, D: 74 nM)
